# TEST_PROTOCOL: Rat bioavailability and pharmacokinetics
# Format: in vivo, male Sprague Dawley rats
# CONDITION_LABEL: male, Sprague Dawley, plasma; IV 5 mg/kg, rat
RECORDED_ENDPOINT: half-life (min)

molecule="Fc1cccc(-c2c[nH]c3ncc(-c4ccsc4)cc23)c1Cl [Example 114]" reported_result=32.4

* * *

# TEST_PROTOCOL: Rat bioavailability and pharmacokinetics
# Type: in vivo, male Sprague Dawley rats
# CONDITION_LABEL: male, Sprague Dawley, plasma; IV 5 mg/kg, rat
RECORDED_ENDPOINT: AUC(0-t) (µg·h/mL)

test_smiles=Fc1cccc(-c2c[nH]c3ncc(-c4ccsc4)cc23)c1Cl reported_result=2.6
